# credit: patent US9193722B2

The entries below come with measured Ki values attached.
targetEntity: PKC delta kinase (Homo sapiens, UniProt Q05655)
Sequence (Q05655 whole entry): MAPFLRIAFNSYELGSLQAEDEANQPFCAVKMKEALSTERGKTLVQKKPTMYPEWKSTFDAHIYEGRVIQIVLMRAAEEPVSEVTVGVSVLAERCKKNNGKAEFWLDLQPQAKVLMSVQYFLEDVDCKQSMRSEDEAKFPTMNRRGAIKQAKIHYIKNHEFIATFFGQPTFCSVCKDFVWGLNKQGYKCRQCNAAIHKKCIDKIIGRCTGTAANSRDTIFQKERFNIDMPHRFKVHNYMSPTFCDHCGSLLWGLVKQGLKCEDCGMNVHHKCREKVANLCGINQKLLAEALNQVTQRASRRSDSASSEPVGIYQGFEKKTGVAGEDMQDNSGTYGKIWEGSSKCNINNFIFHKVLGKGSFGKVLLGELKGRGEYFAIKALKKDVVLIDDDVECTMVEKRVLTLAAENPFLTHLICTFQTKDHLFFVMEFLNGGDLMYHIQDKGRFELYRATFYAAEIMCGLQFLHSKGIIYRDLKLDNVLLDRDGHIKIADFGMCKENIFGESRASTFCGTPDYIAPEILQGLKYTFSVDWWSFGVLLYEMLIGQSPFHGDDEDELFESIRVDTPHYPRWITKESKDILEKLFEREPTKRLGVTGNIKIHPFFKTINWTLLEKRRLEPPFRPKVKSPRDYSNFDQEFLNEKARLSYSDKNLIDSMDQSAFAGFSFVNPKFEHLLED
experimentSummary: PKC delta kinase inhibition, coupled-enzyme (NADH absorbance) assay, Ki
Assay type: biochemical
experimentalContext: 150 μM ATP, 46 nM PKC delta kinase, 30° C.; read-out: Ki PKC delta

compound	Ki
Cc1ccc(C2CN(c3ccc(C(F)(F)F)c(-c4n[nH]c5ncccc45)n3)CCN2)cc1 (centres unmarked)	> 1250 nM
Fc1ccc(N2CCNC3(CCC3)C2)nc1-c1n[nH]c2ncccc12	< 500 nM
CC(C)C[C@H]1CN(c2nc(-c3n[nH]c4ncccc34)ccc2F)CCN1	< 2800 nM
NCC1CCN(c2ccc(F)c(-c3n[nH]c4ncccc34)n2)C1 (centres unmarked)	> 1250 nM
CC1(C)CC1(O)C1CN(c2ccc(F)c(-c3n[nH]c4ncccc34)n2)CCN1 (centres unmarked) [Compound 382]	> 1250 nM
CC(C)C(C)(O)C1CN(c2ccc(F)c(-c3n[nH]c4ncccc34)n2)CCN1 (centres unmarked) [Compound 204]	< 500 nM
CC(C)C(N)C1CN(c2ccc(C(F)(F)F)c(-c3n[nH]c4ncccc34)n2)CCO1 (centres unmarked)	> 1250 nM
FC(F)(F)c1ccc(N2CCCNCC2)nc1-c1n[nH]c2ncccc12	> 2000 nM

* * *

Reported values of pKi for individual entries
targetEntity: PKC delta kinase (Homo sapiens, UniProt Q05655)
experimentSummary: PKC delta kinase inhibition, coupled-enzyme (NADH absorbance) assay, Ki
Assay type: biochemical
experimentalContext: 150 μM ATP, 46 nM PKC delta kinase, 30° C.; read-out: Ki PKC delta
pKi: −log10 of the molar value.

molecule	pKi
NC(=O)C1CCCN(c2ccc(F)c(-c3n[nH]c4ncccc34)n2)C1 (centres unmarked) [Compound 302]	< 5.90
CNC1CCN(c2ccc(C(F)(F)F)c(-c3n[nH]c4ncccc34)n2)CC1 [Compound 359]	< 5.90
CC(C)(C)C[C@H]1CN(c2ccc(Cl)c(-c3n[nH]c4ncccc34)n2)CCN1 [Compound 141]	> 6.30
CC(C)C[C@H]1CN(c2ccc(C(F)(F)F)c(-c3n[nH]c4ncccc34)n2)CCN1 [Compound 4]	< 5.90
Cc1cc([C@@H]2CN(c3ccc(F)c(-c4n[nH]c5ncccc45)n3)CCN2)[nH]n1 [Compound 260]	< 5.90
CC(C)C(C)(O)C1CN(c2nc(-c3n[nH]c4ncccc34)ccc2F)CCN1 (centres unmarked) [Compound 374]	> 6.30
FC(F)(F)c1ccc(C2CCNCC2)nc1-c1n[nH]c2ncccc12 [Compound 431]	< 5.90
CC(C)C[C@H]1CN(c2cccc(-c3n[nH]c4ncccc34)n2)CC[C@H]1N [Compound 118]	> 6.30

* * *

In what follows, each item is paired with its pKi for UniProt Q04759.
Sequence (Q04759 whole entry): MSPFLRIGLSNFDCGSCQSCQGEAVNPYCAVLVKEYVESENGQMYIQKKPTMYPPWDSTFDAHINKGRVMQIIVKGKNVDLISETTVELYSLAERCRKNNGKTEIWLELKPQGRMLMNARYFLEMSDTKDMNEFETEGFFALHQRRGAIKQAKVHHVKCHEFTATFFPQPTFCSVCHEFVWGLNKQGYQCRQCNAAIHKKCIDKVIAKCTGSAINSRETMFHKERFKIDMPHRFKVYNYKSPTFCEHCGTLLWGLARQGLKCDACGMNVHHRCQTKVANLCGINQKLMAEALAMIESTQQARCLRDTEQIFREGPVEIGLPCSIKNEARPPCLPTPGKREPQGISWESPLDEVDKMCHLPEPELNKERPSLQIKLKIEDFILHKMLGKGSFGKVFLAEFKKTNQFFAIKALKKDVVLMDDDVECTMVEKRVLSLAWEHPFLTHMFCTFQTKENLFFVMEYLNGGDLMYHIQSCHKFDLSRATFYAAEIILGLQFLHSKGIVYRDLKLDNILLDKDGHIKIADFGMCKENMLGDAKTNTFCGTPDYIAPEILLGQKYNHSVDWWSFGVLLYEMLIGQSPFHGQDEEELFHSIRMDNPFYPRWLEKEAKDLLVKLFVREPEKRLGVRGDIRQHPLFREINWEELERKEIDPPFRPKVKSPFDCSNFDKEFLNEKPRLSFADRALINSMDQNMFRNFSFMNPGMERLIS
pKi: −log10 of the molar value.

molecule	pKi
C=C(F)c1ccc(N2CCN[C@@H](CC(C)C)C2)nc1-c1n[nH]c2ncccc12 [Compound 6]	> 7.30
COC(=O)C1(CC(C)C)CN(c2ccc(C(F)(F)F)c(-c3n[nH]c4ncccc34)n2)CCC1N (centres unmarked) [Compound 402]	> 6.30
OC1(c2cccc(-c3n[nH]c4ncccc34)n2)CCNCC1 [Compound 60]	< 6.15
CC(C)(C)C(N)C1CCCN(c2ccc(F)c(-c3n[nH]c4ncccc34)n2)C1 (centres unmarked) [Compound 330]	> 9.00
FC(F)(F)c1ccc(N2CCNCC2)nc1-c1n[nH]c2ncccc12 [Compound 8]	> 6.30
CC(F)(F)C(C)(O)C1CN(c2ccc(F)c(-c3n[nH]c4ncccc34)n2)CCN1 (centres unmarked) [Compound 283]	> 9.00
Cc1ccccc1C1CN(c2ccc(C(F)(F)F)c(-c3n[nH]c4ncccc34)n2)CCN1 (centres unmarked) [Compound 124]	> 6.30
C[C@H]1CNCCN1c1cccc(-c2n[nH]c3ncccc23)n1 [Compound 30]	> 7.30
